Where these numbers come from: patent US8247211B2

Tested on: Enterococcus sp.
Experiment: In vitro antibacterial evaluation: minimum inhibitory concentration (MIC), broth dilution method
Assay type: cell-based
Settings: Enterococcus faecium (GC 4556); 18 hours at 35° C.
Measured MIC Enterococcus faecium (GC 4556), listed per entry for reference.
property.label: MIC Enterococcus faecium (GC 4556) (µg/mL)

[[record]]
compound = "CCOc1cc(COCC2OC(OC3C(CO)OC(Oc4ccc(CC5NC(=O)C(C(C)c6ccccc6)NC(=O)CNC(=O)C(CO)NC(=O)C(C(O)C6CNC(=N)N6C6OC(CO)C(O)C(O)C6O)NC(=O)C(C(O)C6CNC(=N)N6)NC5=O)cc4)C(O)C3O)C(O)C(O)C2O)ccc1OC (stereo not shown)"
units_symbol = "µg/mL"
data_value = 32

[[record]]
compound = "CC(c1ccccc1)C1NC(=O)CNC(=O)C(CO)NC(=O)C(C(O)C2CNC(=N)N2C2OC(CO)C(O)C(O)C2O)NC(=O)C(C(O)C2CNC(=N)N2)NC(=O)C(Cc2ccc(OC3OC(CO)C(OC4OC(COCc5ccc(Oc6ccccc6)cc5)C(O)C(O)C4O)C(O)C3O)cc2)NC1=O (stereo not shown)"
units_symbol = "µg/mL"
data_value = 4

[[record]]
compound = "CC(c1ccccc1)C1NC(=O)CNC(=O)C(CO)NC(=O)C(C(O)C2CNC(=N)N2C2OC(CO)C(O)C(O)C2O)NC(=O)C(C(O)C2CNC(=N)N2)NC(=O)C(Cc2ccc(OC3OC(CO)C(OC4OC(CO)C(OCC=Cc5ccc(N(C)C)cc5)C(O)C4O)C(O)C3O)cc2)NC1=O (stereo not shown) [Example 243a]"
units_symbol = "µg/mL"
data_value = 32

[[record]]
compound = "CCCCN1CC(C(O)C2NC(=O)C(C(O)C3CNC(=N)N3)NC(=O)C(Cc3ccc(OC4OC(CO)C(OC5OC6COC7(OC6C(O)C5O)C5CC6CC(C5)CC7C6)C(O)C4O)cc3)NC(=O)C(C(C)c3ccccc3)NC(=O)CNC(=O)C(CO)NC2=O)N(C2OC(CO)C(O)C(O)C2O)C1=N (stereo not shown)"
units_symbol = "µg/mL"
data_value = 4

